# System: LM-3 cells
# experiment_notes: MTT assay, cell survival
# Type: cell-based
# recorded_conditions: LM3, read-out: IC50 values, LM-3, MTT
endpoint: IC50
Please answer using a numeric value trailed by its unit.

Asked: Please give the documented IC50 of "O=C1NC(=O)[C@@H](c2cn3c4c(cccc24)CCC3)[C@@H]1c1c[nH]c2ccccc12"
Given back: 670 nM

###

# experiment_notes: Clearance of sorafenib in cultured cells by LC-MS/MS
# Assay type: in vitro ADME
# recorded_conditions: human, LM-3 cells (cultured HCC cells), Half-life of sorafenib (t1/2), LM-3 cultured cells, PXR siRNA +siRNA
endpoint: half-life at 1 μmol/L (h)
Only the number, expressed in h, is required.

Asked: Please give the documented half-life at 1 μmol/L of "CNC(=O)c1cc(Oc2ccc(NC(=O)Nc3ccc(Cl)c(C(F)(F)F)c3)cc2)ccn1"
Given back: 18.4

meta.source: paper PMC6396672
